What inhibition at 1 µM was measured for each of the following?
# measured.target: human CCR5 (Homo sapiens, UniProt P51681)
# Construct: expressed in transfected cells; whole cells in the well
# Sequence (P51681 whole entry): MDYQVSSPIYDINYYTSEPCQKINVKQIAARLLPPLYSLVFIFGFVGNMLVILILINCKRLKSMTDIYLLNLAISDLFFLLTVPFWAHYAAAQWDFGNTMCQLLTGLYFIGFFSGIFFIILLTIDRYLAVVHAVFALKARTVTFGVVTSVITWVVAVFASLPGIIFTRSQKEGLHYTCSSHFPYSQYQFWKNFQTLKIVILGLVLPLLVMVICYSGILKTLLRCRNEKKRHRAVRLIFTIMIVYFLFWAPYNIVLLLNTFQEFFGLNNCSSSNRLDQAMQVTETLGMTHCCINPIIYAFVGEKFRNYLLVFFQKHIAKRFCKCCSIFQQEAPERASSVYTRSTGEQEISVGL
# protocol.description: CCR5 binding assay: inhibition of [125I]-RANTES binding to CHO/CCR5 cells
# conditions.used: 1.0 μM test compound, 100 pM [125I]-RANTES, room temperature 40 minutes, read-out: Inhibition Rate (%) at 1.0 μM
Where a name gives a salt, the structure may show the parent alone.
Answers are plain numbers, in %.

Each compound below has a reported value. Please supply its inhibition at 1 µM.
1. CC(=O)N1CCC(C(=O)N(CCCN2CCC(On3nnc4ccccc43)CC2)c2cccc(Cl)c2)CC1 [Example 88, Trifluoroacetate]
2. CC(=O)N1CCC(C(=O)N(CCCN2CCC(Cc3ccc(F)cc3)CC2)c2cccc(Cl)c2)CC1
3. CS(=O)(=O)Nc1ccc(CC2CCN(CCCN(C(=O)C3CCN(S(C)(=O)=O)CC3)c3ccc(Cl)c(Cl)c3)CC2)cc1

Out:
1: 99; 2: 87; 3: 97

Each compound below has a reported value. Please supply its inhibition at 1 µM.
1. CS(=O)(=O)N1CCC(C(=O)N(CCCN2CCC(Cc3ccc(S(N)(=O)=O)cc3)CC2)c2ccc(Cl)c(Cl)c2)CC1
2. CC(=O)Nc1ccc(C(=O)N2CCC(C(=O)N(CCCN3CCC(Cc4ccc(F)cc4)CC3)c3ccc(Cl)c(Cl)c3)CC2)cc1 [Example 158, Trifluoroacetate]
3. CS(=O)(=O)N1CCC(C(=O)N(CCCN2CCC(Cc3ccc(N4CCOCC4)cc3)CC2)c2ccc(Cl)c(Cl)c2)CC1

Out:
1. 100
2. 97
3. 97
